system: MINK; construct: gene MINK1;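 note: kd values determined as follow-up on hits from a single-replicate KINOMEscan panel screen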
RECORDED_ENDPOINT: Kd (µM)
Answer in µM, number only, no unit symbol.

*Q* Provide only the value of recorded Kd for `NS(=O)(=O)c1cccc(N/C=C2\C(=O)Nc3ccc(S(=O)(=O)Cc4c(Cl)cccc4Cl)cc32)c1`
*A* 0.79

---

test system: INSR; conditions: concentration: 1 μM, replicates: in singlicate; n = 1
As shown below, each of these compounds has a reported %Inh value.
Answer in %, number only, no unit symbol.

*Q* Provide only the value of recorded %Inh for `CC(=O)c1c(C)c2cnc(Nc3ccn(C)n3)nc2n(C2CCCC2)c1=O`
*A* 0

*Q* Provide only the value of recorded %Inh for COC(=O)C(Cc1ccccc1)NC(=O)NC1CCN(c2ccnc(Nc3ccc(F)cc3)n2)C1 (centres unmarked) [GSK1379714]
*A* 1

*Q* Provide only the value of recorded %Inh for O=C(Nc1n[nH]c2cc(-c3ccsc3)ccc12)C1CC1 [SB-732932]
*A* 9

*Q* Provide only the value of recorded %Inh for CNc1cc(-c2ccc3c(N)n[nH]c3c2)nc(N)n1 [GSK2224810]
*A* 19

Read the next record carefully.
*Q* Provide only the value of recorded %Inh for Cc1ccc(-c2nc(Nc3ccncc3)c3ccccc3n2)s1 [GSK189015]
*A* 9

---

system: PIK3CB; settings: concentration: 1 μM, replicates: in singlicate; n = 1
RECORDED_ENDPOINT: %Inh (%)
Answer in %, number only, no unit symbol.

Look over these answered cases.
*Q* Provide only the value of recorded %Inh for `Cc1ccc(NC(=O)Nc2ccccc2)cc1-c1ccc(C(=O)Nc2ccncc2)cc1`
*A* 0

*Q* Provide only the value of recorded %Inh for `CC(=O)c1c(C)c2cnc(Nc3ccc(N4CCNCC4)cn3)nc2n(C2CCCC2)c1=O`
*A* 0

Others:
*Q* Provide only the value of recorded %Inh for `Fc1ccc(-c2nc3n(c2-c2ccncc2)CCS3)cc1`
*A* 0

*Q* Provide only the value of recorded %Inh for `Cc1ccccc1Cn1ccn2c(=O)cc(N3CCOCC3)nc12`
*A* 99.9

*Q* Provide only the value of recorded %Inh for `CNc1nc(-c2ccc3c(N)n[nH]c3c2)cc(N2C[C@@H](C(=O)NC3CCCCC3)OC[C@H]2C)n1`
*A* 34

---

system: SBK1; settings: concentration: 1 μM, replicates: in singlicate; n = 1
RECORDED_ENDPOINT: %Inh
Answer with the figure and its unit, nothing else.

Look over these answered cases.
*Q* Provide only the value of recorded %Inh for CCn1c(-c2ccccc2)nc2cnccc21 [SB-733416]
*A* 9%

*Q* Provide only the value of recorded %Inh for Cl.Cl.Cl.N#Cc1ccc(CCNc2nccc(-c3cccc(CN4CCNCC4)c3)n2)cc1 [GSK2137462]
*A* 24%

*Q* Provide only the value of recorded %Inh for Fc1ccc(-c2nn3cccc(F)c3c2-c2ccncc2)cc1 [GW475620]
*A* 12%

*Q* Provide only the value of recorded %Inh for `CNCc1ccc2nc(NC(=O)c3ccc(C(C)(C)C)cc3)cn2c1`
*A* 27%

Others:
*Q* Provide only the value of recorded %Inh for Cc1ccc(NC(=O)Nc2ccc(Cl)c(C(F)(F)F)c2)cc1-c1ccc(C(=O)Nc2ccncc2)cc1 [GSK1398470]
*A* 64%

*Q* Provide only the value of recorded %Inh for Cc1ccc(-c2nc(Nc3ccncc3)c3ccccc3n2)s1 [GSK189015]
*A* 4%

*Q* Provide only the value of recorded %Inh for COC(=O)C(NC(=O)NC1CCN(c2ccnc(Nc3ccc(F)cc3)n2)C1)c1ccccc1 (stereo not drawn) [GSK1379712]
*A* 8%

*Q* Provide only the value of recorded %Inh for O=c1cc(N2CCOCC2)nc2n(Cc3cccc(Cl)c3Cl)c3ccccc3n12 [GSK2299009]
*A* 28%

*Q* Provide only the value of recorded %Inh for CC(=O)c1cccc(NC(=O)NC2CCN(c3ccnc(Nc4ccc(F)cc4)n3)C2)c1 (stereo not drawn) [GSK1379710]
*A* 5%

*Q* Provide only the value of recorded %Inh for COc1ccc(Nc2nccc(NCCNC(=O)Nc3cc(C)ccc3C)n2)cc1 [GSK1379899]
*A* 0%

*Q* Provide only the value of recorded %Inh for CS(=O)(=O)CCNCc1nc(-c2ccc3ncnc(Nc4ccc(OCc5ccccc5)c(Cl)c4)c3c2)cs1.Cl [GW582764]
*A* 23%

*Q* Provide only the value of recorded %Inh for CS(=O)(=O)CCNCc1nc(-c2ccc3ncnc(Nc4ccc5c(cnn5Cc5ccccc5)c4)c3c2)cs1.Cl.Cl [GW569716]
*A* 0%

---

test system: PKN1; details: concentration: 1 μM, replicates: in singlicate; n = 1
Flag rule - %Inh less than 10% flags yes; the remaining entries get no.

As a guide, the following entries are already answered.
*Q* Is %Inh of Cc1ccc(NC(=O)c2ccc(Cl)cc2)cc1-c1ccc(C(=O)Nc2ccncc2)cc1 [GSK1398467] strictly below 10%?
*A* yes

*Q* Is %Inh of Cn1cncc1-c1cc2c(Nc3ccc(OCc4ccccc4)cc3)ncnc2cn1 [GW281179] strictly below 10%?
*A* yes

*Q* Is %Inh of Fc1ccc(-c2nc3n(c2-c2ccncc2)CCS3)cc1 [GI98581] strictly below 10%?
*A* yes

*Q* Is %Inh of Cl.Cl.Cl.N#Cc1ccc(CCNc2nccc(-c3cccc(CN4CCNCC4)c3)n2)cc1 [GSK2137462] strictly below 10%?
*A* yes

*Q* Is %Inh of CCn1c(-c2c(N)noc2C)nc2cnccc21 [SB-737856] strictly below 10%?
*A* no

Others:
*Q* Is %Inh of COc1nccc(-c2c(-c3ccc(F)cc3)ncn2CCCN2CCOCC2)n1 [SB-282852] strictly below 10%?
*A* yes

*Q* Is %Inh of CC(C)c1ccc(O)cc1Nc1ccnc2ccc(C(F)(F)F)cc12 [GW482059] strictly below 10%?
*A* no

*Q* Is %Inh of O=C(Nc1n[nH]c2nc(-c3ccco3)c(Br)cc12)C1CCN(Cc2ccccc2)C1.O=C(O)[C@H](O)[C@@H](O)C(=O)O (stereo not drawn) [SB-742034] strictly below 10%?
*A* yes

*Q* Is %Inh of COC(=O)C(NC(=O)NC1CCN(c2ccnc(Nc3ccc(F)cc3)n2)C1)c1ccccc1 (stereo not drawn) [GSK1379712] strictly below 10%?
*A* no

*Q* Is %Inh of c1ccc(-c2ccnc3[nH]ccc23)cc1 [SB-693578] strictly below 10%?
*A* yes

*Q* Is %Inh of COc1ccc(Nc2nccc(N3CCC(NC(=O)C(C)c4ccc(Cl)cc4)C3)n2)cc1 (stereo not drawn) [GSK1379735] strictly below 10%?
*A* no

*Q* Is %Inh of Cc1ccc(NC(=O)Nc2ccccc2F)cc1-c1ccc(C(=O)Nc2ccncc2)cc1 [GSK1398477] strictly below 10%?
*A* no

*Q* Is %Inh of Cc1ccccc1Cn1ccn2c(=O)cc(N3CCOCC3)nc12 [GSK2269905] strictly below 10%?
*A* yes

*Q* Is %Inh of `CCc1ccc(-c2ccc3c(c2)-c2n[nH]cc2S(=O)(=O)N3C)cc1` strictly below 10%?
*A* yes

---

test system: AKT3; details: concentration: 1 μM, replicates: in singlicate; n = 1
As shown below, each of these compounds has a reported %Inh value.
Answer in %, number only, no unit symbol.

Look over these answered cases.
*Q* Provide only the value of recorded %Inh for `CC(C)c1cc(-c2ccc3c(N)n[nH]c3c2)nc(N)n1`
*A* 0

*Q* Provide only the value of recorded %Inh for `O=C1NC(=O)C(c2ccc(Cl)cc2)=C1Nc1ccc(O)cc1`
*A* 0

*Q* Provide only the value of recorded %Inh for `NS(=O)(=O)c1cccc(N/C=C2\C(=O)Nc3ccc(S(=O)(=O)Cc4c(Cl)cccc4Cl)cc32)c1`
*A* 0

Others:
*Q* Provide only the value of recorded %Inh for `FC(F)(F)c1ccccc1-c1cc(-c2c[nH]nc2-c2ccccn2)ccn1`
*A* 16

*Q* Provide only the value of recorded %Inh for `Nc1nccc(-c2c(-c3ccc(F)cc3)ncn2C2CCN(Cc3ccccc3)CC2)n1`
*A* 0

*Q* Provide only the value of recorded %Inh for `O=C(Nc1n[nH]c2nc(-c3cccs3)c(Br)cc12)C1CCCC1`
*A* 0

*Q* Provide only the value of recorded %Inh for `Fc1ccc(-c2nn3cccc(F)c3c2-c2ccncc2)cc1`
*A* 29

*Q* Provide only the value of recorded %Inh for `Cc1nccc(-c2c(-c3ccc(F)cc3)ncn2CCCN2CCOCC2)n1.Cl`
*A* 0

*Q* Provide only the value of recorded %Inh for `Cn1cncc1-c1cc2c(Nc3ccc(OCc4ccccc4)cc3)ncnc2cn1`
*A* 0

---

system: p38-delta; details: concentration: 1 μM, replicates: in singlicate; n = 1
As shown below, each of these compounds has a reported %Inh value.
Answer in %, number only, no unit symbol.

*Q* State recorded %Inh with p38-delta, entry `CNCc1ccc2nc(NC(=O)c3ccc(C(C)(C)C)cc3)cn2c1` , no comment.
*A* 0

Others:
*Q* State recorded %Inh with p38-delta, entry `CC[C@@H]1CO[C@H](C(=O)Nc2ccccc2)CN1c1cc(-c2ccc3c(N)n[nH]c3c2)nc(NC)n1` , no comment.
*A* 26

*Q* State recorded %Inh with p38-delta, entry `CSc1ccc(-c2nc3n(c2-c2ccncc2)CCC3)cc1` , no comment.
*A* 0

*Q* State recorded %Inh with p38-delta, entry `CCn1c(-c2ccccc2)nc2cnccc21` , no comment.
*A* 56

*Q* State recorded %Inh with p38-delta, entry `CC(C)c1cc(-c2ccc3c(N)n[nH]c3c2)nc(N)n1` , no comment.
*A* 18

*Q* State recorded %Inh with p38-delta, entry `Nc1ncnc2occ(-c3ccc4c(c3)CCN4C(=O)Cc3cc(F)ccc3F)c12` , no comment.
*A* 24

*Q* State recorded %Inh with p38-delta, entry `Fc1ccc(-c2nc[nH]c2-c2ccncc2)cc1` , no comment.
*A* 0

*Q* State recorded %Inh with p38-delta, entry `Fc1ccc(-c2nn3cccc(F)c3c2-c2ccncc2)cc1` , no comment.
*A* 21

*Q* State recorded %Inh with p38-delta, entry `COc1ccc(CSc2nnc(-c3ccc4nccn4c3)o2)cc1C(F)(F)F` , no comment.
*A* 0

*Q* State recorded %Inh with p38-delta, entry `Cc1c(Cn2c(C)c(C)n3c(=O)cc(N4CCOCC4)nc23)cccc1C(F)(F)F` , no comment.
*A* 33

*Q* State recorded %Inh with p38-delta, entry `FC(F)(F)c1ccccc1-c1cc(-c2c[nH]nc2-c2ccccn2)ccn1` , no comment.
*A* 17

*Q* State recorded %Inh with p38-delta, entry `O=c1cc(N2CCOCC2)nc2n(Cc3cccc(Cl)c3Cl)c3ccccc3n12` , no comment.
*A* 16
